Entries annotated with measured MIC
- Test system: Proteus vulgaris HX 19
- method.notes: Minimum Inhibitory Concentration, Proteus vulgaris HX 19
- Assay type: cell-based
- run.parameters: HX19; Proteus vulgaris HX 19; read-out: Minimum Inhibitory Concentration

# count of solved cases: 2
NC(=O)Nc1ccc([C@@H](NC(=O)c2cnc3cccnc3c2O)C(=O)N[C@@H]2C(=O)N3C(C(=O)O)=C(CSc4nncs4)CS[C@H]23)cc1    0.2 µg/mL
Cn1nnnc1SCC1=C(C(=O)O)N2C(=O)C(NC(=O)C(NC(=O)c3cncnc3O)c3ccc(CO)cc3)C2SC1 (stereo not drawn)    0.78 µg/mL

Switching to the query record.
// MIC lookup, key: O=C(O)C1=C(CSc2ccc(O)nn2)CSC2C(NC(=O)C(NC(=O)c3cnc4cccnc4c3O)c3ccc(CO)cc3)C(=O)N12 (stereo not drawn)
0.39 µg/mL
